tested on: Chordin-like protein 2 (CHRDL2); test: CHRDL2 small-molecule binders, primary screen, biochemical, small-molecule microarray, 635 nm fluorescence (AID 1126); details: small-molecule microarray binding, fluorescence 635 nm; higher = more signal;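 further: printed compound slides probed with Chrdl2 protein at 4 µg/mL for 1 h at 4 C; score merges 667 nm emission intensity with signal to noise over three replicate slides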
value kind: composite z-score
Give bare numbers.

Provide composite z-score for all items below, preserving their order.
1. CCOC(=O)C1=C[C@@H](C(C)(C)C)N(S(=O)(=O)c2ccc(C)cc2)[C@H]1c1ccc(OC)cc1
2. COC(=O)[C@@]1(Cc2ccc(F)cc2)[C@H]2c3cc(C(=O)N(C)C)n(CCF)c3C[C@H]2CN1C(=O)c1ccccc1
3. [N-]=[N+]=NCc1ccccc1[C@H]1OC(c2ccc(OCCCO)cc2)=N[C@@]1(Cc1ccccc1N=[N+]=[N-])C(=O)N1CCOCC1

Resp:
1: 0.209; 2: -0.411; 3: -0.596

Req: Field request: composite z-score | item: CCCCCN1CC=CC23O[C@@H]4/C=C\CCCOC(=O)C4[C@H]2C(=O)N(CCCCCO)[C@@H]3C1=O (some centres undefined)
Resp: -0.801
